test_system: T1, human FcRn/b2M (human, UniProt P61769 21-119, biotinylated)
T1 construct: bought recombinant biotinylated protein (ACRO FCM-H82W4 or Immunitrack ITF01); also called hFcRn; hFcRn/hb2M
procedure_text: SPR pH 6.0;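 further: surface plasmon resonance kinetics at 25 °C, diluted periplasmic extracts injected over immobilized ligand surfaces, 120 s association then 600–3600 s dissociation, running buffer containing 150 mM NaCl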
property_label: koff (s⁻¹)

Guide cases for koff, answers given:
- T0263018B11 S52aE (VHH, name in Kabat numbering, FLAG3-His6 tagged) VHH: EVQLVESGGGVVQPGGSLRLSCAASGFTFSSYAMYWVRQAPGKGLEWVSAISEGGGSTDYADSVKGRFTISRDNSKNTLYLQMNSLRPEDTALYYCAADTLYTSLTWYSYWGQGTLVTVSS: 0.00087
- T0263018B11 S52H (VHH, name in Kabat numbering, FLAG3-His6 tagged) VHH: EVQLVESGGGVVQPGGSLRLSCAASGFTFSSYAMYWVRQAPGKGLEWVSAIHSGGGSTDYADSVKGRFTISRDNSKNTLYLQMNSLRPEDTALYYCAADTLYTSLTWYSYWGQGTLVTVSS: 0.0032
- T0263018B11 A33V (VHH, name in Kabat numbering, FLAG3-His6 tagged) VHH: EVQLVESGGGVVQPGGSLRLSCAASGFTFSSYVMYWVRQAPGKGLEWVSAISSGGGSTDYADSVKGRFTISRDNSKNTLYLQMNSLRPEDTALYYCAADTLYTSLTWYSYWGQGTLVTVSS: 0.00022
- T0263018B11 T96F (VHH, name in Kabat numbering, FLAG3-His6 tagged) VHH: EVQLVESGGGVVQPGGSLRLSCAASGFTFSSYAMYWVRQAPGKGLEWVSAISSGGGSTDYADSVKGRFTISRDNSKNTLYLQMNSLRPEDTALYYCAADFLYTSLTWYSYWGQGTLVTVSS: 0.0031
- T0263018B11 S101T (VHH, name in Kabat numbering, FLAG3-His6 tagged) VHH: EVQLVESGGGVVQPGGSLRLSCAASGFTFSSYAMYWVRQAPGKGLEWVSAISSGGGSTDYADSVKGRFTISRDNSKNTLYLQMNSLRPEDTALYYCAADTLYTSLTWYTYWGQGTLVTVSS: 0.00057

I = T0263018B11 T96G (VHH, name in Kabat numbering, FLAG3-His6 tagged) VHH: EVQLVESGGGVVQPGGSLRLSCAASGFTFSSYAMYWVRQAPGKGLEWVSAISSGGGSTDYADSVKGRFTISRDNSKNTLYLQMNSLRPEDTALYYCAADGLYTSLTWYSYWGQGTLVTVSS
II = T0263018B11 D58E (VHH, name in Kabat numbering, FLAG3-His6 tagged) VHH: EVQLVESGGGVVQPGGSLRLSCAASGFTFSSYAMYWVRQAPGKGLEWVSAISSGGGSTEYADSVKGRFTISRDNSKNTLYLQMNSLRPEDTALYYCAADTLYTSLTWYSYWGQGTLVTVSS
Which item exceeds the other in koff, I or II ? Refer to your chosen item by its label in the answer.
I
(I: 0.014 s⁻¹, II: 0.0024 s⁻¹)

I = T0263018B11 A33T (VHH, name in Kabat numbering, FLAG3-His6 tagged) VHH: EVQLVESGGGVVQPGGSLRLSCAASGFTFSSYTMYWVRQAPGKGLEWVSAISSGGGSTDYADSVKGRFTISRDNSKNTLYLQMNSLRPEDTALYYCAADTLYTSLTWYSYWGQGTLVTVSS
II = T0263018B11 S52aA (VHH, name in Kabat numbering, FLAG3-His6 tagged) VHH: EVQLVESGGGVVQPGGSLRLSCAASGFTFSSYAMYWVRQAPGKGLEWVSAISAGGGSTDYADSVKGRFTISRDNSKNTLYLQMNSLRPEDTALYYCAADTLYTSLTWYSYWGQGTLVTVSS
III = T0263018B11 T28W (VHH, name in Kabat numbering, FLAG3-His6 tagged) VHH: EVQLVESGGGVVQPGGSLRLSCAASGFWFSSYAMYWVRQAPGKGLEWVSAISSGGGSTDYADSVKGRFTISRDNSKNTLYLQMNSLRPEDTALYYCAADTLYTSLTWYSYWGQGTLVTVSS
IV = T0263018B11 S56K (VHH, name in Kabat numbering, FLAG3-His6 tagged) VHH: EVQLVESGGGVVQPGGSLRLSCAASGFTFSSYAMYWVRQAPGKGLEWVSAISSGGGKTDYADSVKGRFTISRDNSKNTLYLQMNSLRPEDTALYYCAADTLYTSLTWYSYWGQGTLVTVSS
Arrange by koff, high to low. Answer by listing the labels in the order asked for.
IV, II, III, I

Cited source for all entries: patent US20240132624A1
